System: HEK-293T
run-description: Incucyte cell viability with HEK293T; further: filed as whole numbers so only -1 and 0 and 1 occur
Type: toxicity, cell-based
test-conditions: human, 0 h, 10 µM, compound concentration 10 uM, replicate number 1, timepoint 0 hours
Exercise: state measured Growth Rate for each of the compounds provided.
Give the figure only, with no unit attached.

(Q) Record COc1cccc2cc(-c3nc([C@H]4CC[C@H](C(=O)O)CC4)n4ncnc(N)c34)[nH]c12 [OSI-027] : what is its Growth Rate with HEK-293T?
(A) 1

(Q) Now the same for CCC[C@H](Oc1cc(C)c(-n2cc(C(F)(F)F)cn2)c(C)c1)c1ccc(C(=O)NCCC(=O)O)cc1 [PF-06291874]
(A) 1

(Q) Now the same for CC(C)(C)OC(=O)N1CCCC1CNC1CCC(c2cc(F)ccc2F)(S(=O)(=O)c2ccc(Cl)cc2)CC1 (configuration not stated) [GSI-NC]
(A) 0

(Q) Now the same for Cc1ccc2nc(NCCN)c3ncc(C)n3c2c1.O=C(O)C(F)(F)F.O=C(O)C(F)(F)F
(A) 0

(Q) Now the same for CCn1c(=O)c(-c2ccc(-c3cncs3)cc2Cl)cc2cnc(Nc3ccc(N4CCN(C)CC4)cc3)nc21
(A) 0

(Q) Now the same for O=C1O[C@]2(CC[C@H](C(=O)Nc3ccn(-c4ccccc4F)n3)CC2)c2cnccc21 [MK-0557]
(A) 0

(Q) Now the same for CS(=O)(=O)NCC[C@H](NC(=O)c1cncc2c1cnn2-c1ccc(F)cc1)c1ccnc(S(C)(=O)=O)c1 [BI 9307]
(A) 0

(Q) Now the same for Cc1ccc2nc(CNCCCOc3ccccc3)cc(O)c2c1 [UCSF924]
(A) 0

(Q) Now the same for COc1cc2c(CCNC(C)=O)c[nH]c2cc1Cl
(A) 0

(Q) Now the same for Cc1ccc(-c2cnc([C@@]3(O)CC[C@H](C(=O)O)C(C)(C)C3)s2)cc1Nc1cccc(C(F)(F)F)n1 [MRL-SYKi-NC]
(A) 0

(Q) Now the same for CCCCCCCCCCCCCCCCOC[C@H](COP(=O)([O-])OCC[N+](C)(C)C)OC(C)=O
(A) 1

(Q) Now the same for CC1(C)CCC(C)(C)c2cc(NC(=O)c3ccc(C(=O)O)cc3)ccc21 [TAMIBAROTENE]
(A) 0

(Q) Now the same for Cc1cc(C)c(S(=O)(=O)N(Cc2ccc(-c3cccc(S(C)(=O)=O)c3)cc2)Cc2ccc(C(F)(F)F)o2)c(C)c1
(A) 0

(Q) Now the same for C=C(c1ccc(C(=O)O)cc1)c1cc2c(cc1C)C(C)(C)CCC2(C)C [BEXAROTENE]
(A) 1

(Q) Now the same for COc1ccnc(N2CCC3(CCCN(Cc4c[nH]c5ccccc45)C3=O)CC2)n1
(A) 0

(Q) Now the same for Cc1c(NC(=O)c2cc(C(N)=O)nc3cc(F)ccc23)c(C(F)(F)F)nn1Cc1ccc(C(C)(C)C)cc1 [BAY-588]
(A) 0

(Q) Now the same for COc1cc(-c2cn(C)c(=O)c3cnccc23)c(OC)cc1CN(C)C
(A) 1

---

Tested on: HEK-293T
run-description: Multiplex assay against HEK293T;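 further: share of the cells with healthy nuclei that show this phenotype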
Format: toxicity, cell-based
test-conditions: human, 48 h, 10 µM, compound concentration 10 uM, replicate 1
measured-property: Population Tubulin-Different-Phenotype (%)
Response body: numeric value in %, unit text excluded.

(Q) Entry under review: COc1cc(N2CCN(C)CC2)ccc1Nc1ncc2c(n1)N(C)c1ccccc1C(=O)N2C . Reported Population Tubulin-Different-Phenotype (%)?
(A) 91

(Q) Now the same for COCC(=O)NC/C=C/c1ccc2ncnc(Nc3ccc(Oc4ccc(C)nc4)c(C)c3)c2c1
(A) 92

(Q) Now the same for CN1C2CCC1CC(OC(c1ccc(F)cc1)c1ccc(F)cc1)C2.Cl (stereo not drawn)
(A) 95
